Test system: 354836-022-R-J1-PDC multicell spheroid viability;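 further: spheroids exposed to agents for seven days before the viability read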
method notes: Anticancer human tumor 354836-022-R-J1-PDC patient-derived head and neck squamous cell carcinoma cell line growth inhibition [PI3K]; active means viability on the fitted dose curve at most 10% of control; inactive means the rest
condition context: second compound 0.0316 µM; first compound 3.16 µM
Description: Combinatorial screen of targeted agents with the PI3K inhibitors inavolisib, alpelisib, duvelisib, and copanlisib in multi-cell type tumor spheroids A high-throughput screen of multi-cell type tumor spheroids was designed to identify active combinations of targeted small molecules and PI3K pathway inhibitors. […] Compounds. […] If the clinical Cmax for an agent had not been determined, the highest concentration tested was 10 microM. […]
Classes used: true (1) for active, false (0) for inactive

{"compound": "CNC(=O)c1ccc(N2C(=S)N(c3ccc(C#N)c(C(F)(F)F)c3)C(=O)C2(C)C)cc1F + CC(Nc1ncnc2nc[nH]c12)c1cc2cccc(Cl)c2c(=O)n1-c1ccccc1", "tested target": "354836-022-R-J1-PDC multicell spheroid viability", "group": "false (0)"}
{"compound": "Cn1nccc1Nc1nccc(-c2ccn(C(CO)c3ccc(Cl)c(F)c3)c(=O)c2)n1 (stereo unspecified) + Cc1nc(NC(=O)N2CCCC2C(N)=O)sc1-c1ccnc(C(C)(C)C(F)(F)F)c1", "tested target": "354836-022-R-J1-PDC multicell spheroid viability", "group": "false (0)"}
{"compound": "CC1(C)CCC(Nc2ncc(C(F)(F)F)c(-c3c[nH]c4c(P(C)(C)=O)c(C#N)ccc34)n2)CN1 (stereo unspecified) + Cc1nc(NC(=O)N2CCCC2C(N)=O)sc1-c1ccnc(C(C)(C)C(F)(F)F)c1", "tested target": "354836-022-R-J1-PDC multicell spheroid viability", "group": "false (0)"}
{"compound": "C=CC(=O)N1CCN(c2nc(=O)n(-c3c(C)ccnc3C(C)C)c3nc(-c4c(O)cccc4F)c(F)cc23)C(C)C1 (stereo unspecified) + CC(Nc1ccc2c(c1)OCCn1cc(N3C(=O)OCC3C(F)F)nc1-2)C(N)=O", "tested target": "354836-022-R-J1-PDC multicell spheroid viability", "group": "false (0)"}
{"compound": "CC1(C)CCC(Nc2ncc(C(F)(F)F)c(-c3c[nH]c4c(P(C)(C)=O)c(C#N)ccc34)n2)CN1 (stereo unspecified) + CC(Nc1ncnc2nc[nH]c12)c1cc2cccc(Cl)c2c(=O)n1-c1ccccc1", "tested target": "354836-022-R-J1-PDC multicell spheroid viability", "group": "true (1)"}
{"compound": "CCCS(=O)(=O)Nc1ccc(F)c(C(=O)c2c[nH]c3ncc(-c4ccc(Cl)cc4)cc23)c1F + Cc1nc(NC(=O)N2CCCC2C(N)=O)sc1-c1ccnc(C(C)(C)C(F)(F)F)c1", "tested target": "354836-022-R-J1-PDC multicell spheroid viability", "group": "false (0)"}
{"compound": "C[C@@H](NC(=O)c1ncnc(N)c1Cl)c1ncc(C(=O)Nc2cc(C(F)(F)F)c(Cl)cn2)s1 + Cc1nc(NC(=O)N2CCCC2C(N)=O)sc1-c1ccnc(C(C)(C)C(F)(F)F)c1", "tested target": "354836-022-R-J1-PDC multicell spheroid viability", "group": "false (0)"}
{"compound": "C[C@@H](NC(=O)c1ncnc(N)c1Cl)c1ncc(C(=O)Nc2cc(C(F)(F)F)c(Cl)cn2)s1 + CC(Nc1ccc2c(c1)OCCn1cc(N3C(=O)OCC3C(F)F)nc1-2)C(N)=O", "tested target": "354836-022-R-J1-PDC multicell spheroid viability", "group": "false (0)"}
{"compound": "C=CC(=O)N1CCN(c2nc(=O)n(-c3c(C)ccnc3C(C)C)c3nc(-c4c(O)cccc4F)c(F)cc23)C(C)C1 (stereo unspecified) + COc1c(OCCCN2CCOCC2)ccc2c3n(c(=NC(=O)c4cnc(N)nc4)nc12)CCN3", "tested target": "354836-022-R-J1-PDC multicell spheroid viability", "group": "false (0)"}
{"compound": "Cn1ncc(Cl)c1-c1cc(C(=O)NC(CN)Cc2cccc(F)c2)sc1Cl (stereo unspecified) + CC(Nc1ncnc2nc[nH]c12)c1cc2cccc(Cl)c2c(=O)n1-c1ccccc1", "tested target": "354836-022-R-J1-PDC multicell spheroid viability", "group": "true (1)"}
{"compound": "CC(Cn1ccc(-c2ccc(C#N)c(Cl)c2)n1)NC(=O)c1cc(C(C)O)[nH]n1 (stereo unspecified) + CC(Nc1ncnc2nc[nH]c12)c1cc2cccc(Cl)c2c(=O)n1-c1ccccc1", "tested target": "354836-022-R-J1-PDC multicell spheroid viability", "group": "false (0)"}
